- system_under_test: T1, mouse GIP receptor (mouse, UniProt Q0P543 19-460)
- T1 sequence (looked up): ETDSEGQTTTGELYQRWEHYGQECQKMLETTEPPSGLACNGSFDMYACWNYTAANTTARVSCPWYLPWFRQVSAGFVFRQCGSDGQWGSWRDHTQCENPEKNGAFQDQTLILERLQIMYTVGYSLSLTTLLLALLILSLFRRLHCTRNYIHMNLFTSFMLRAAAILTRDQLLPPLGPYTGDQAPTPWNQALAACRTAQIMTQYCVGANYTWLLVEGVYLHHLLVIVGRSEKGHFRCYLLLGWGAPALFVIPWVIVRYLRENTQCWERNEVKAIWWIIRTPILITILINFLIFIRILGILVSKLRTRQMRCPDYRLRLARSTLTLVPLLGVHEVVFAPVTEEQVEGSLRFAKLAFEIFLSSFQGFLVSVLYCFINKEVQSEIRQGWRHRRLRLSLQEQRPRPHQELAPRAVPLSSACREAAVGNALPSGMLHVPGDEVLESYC
- method_summary: cell-based or functional assay
Measured cAMP EC50 of individual entries
Respond numerically; units are nM and should not be typed.

Past entries and their recorded results:
# binder, recorded_value
records = [
    ("IP243 (Fc fusion) YSEGTFTSDYSKLLEEEAQRLFIEWLVKGPAAAGGSGSTASSGSGSATGGGGAATHTCPPCPAPEF", 32),
    ("IP274 (Fc fusion) YSEGTFTSDYSKLLEKEAVRLFIEWLLKGPGGGGGSGGGGSGGGGSGGGGSATHTCPPC", 1),
]

Here is the next item to consider.
# return recorded cAMP EC50 for input IP371 (Fc fusion) YSEGMHTSDLSKLLEEEAVRLFIEWLLAGGGGGGGSGGGGSGGGGSGGGGSACPPC 280
